Reference source for all entries: paper PMC10584170

# Tested on: P. berghei ookinete development
# measurement protocol: P. berghei Ookinete Development Assay (PbODA)
# Assay type: cell-based, Plasmodium berghei
# conditions used: Mean TOX HepG2 over Pb ODA value; GREEN = >10-fold; RED = <10-fold
Measured Cytotox ratio Pb Ookinete by item
measure name: Cytotox ratio Pb Ookinete

entry_smiles=Cn1c(Sc2ncnc3sccc23)nc2ccccc21 endpoint_result=156933.9
entry_smiles=Cl.NC(=O)c1ccccc1Nc1nc(Nc2cccc(N3CCN(CCO)CC3)c2)ncc1Cl endpoint_result=311828.0
entry_smiles=CNC(=O)c1ccccc1Nc1nc(Nc2ccc(N3CCOCC3)cc2)ncc1Cl.Cl endpoint_result=3489.3
entry_smiles=Cc1cc(Nc2ncc(C#N)c(Nc3ccccc3C(N)=O)n2)ccc1N1CCN(C)CC1.Cl endpoint_result=66058.5
entry_smiles=COc1ccc(Nc2ncc(Cl)c(Nc3cccnc3C(N)=O)n2)cc1N1CCN(C)CC1.Cl endpoint_result=11414.1
entry_smiles=COc1cc(-c2nc(C(C)(C)CN)[nH]c2-c2ccncc2)ccc1Br.Cl endpoint_result=31592.6
entry_smiles=CN1CCN(c2ccc(Nc3ncc(C#N)c(Nc4ccccc4C(N)=O)n3)cc2)CC1.Cl endpoint_result=95106.6
entry_smiles=Cc1ccc(S(=O)(=O)N(CCCNCc2cccc(O)c2)c2ccccc2)cc1 endpoint_result=26220.7
entry_smiles=COc1ccc2nc(-c3cc(-c4ccc(NC(C)=O)cc4)cnc3N)[nH]c2c1 endpoint_result=10513.6
